Record form. Attribute: inhibition. Fill in for each entry.
target: Avian myoblastosis virus polyprotein II (Avian myeloblastosis virus) (UniProt Q86831); assay: Inhibition of Avian myeloblastosis virus reverse transcriptase; set-up: concentration or dose not given beside the values; settings: concentration not given here
Answers are plain numbers, in %.

// batch mode: one inhibition value per listed entry
1. COc1cc2oc(-c3ccccc3)cc(=O)c2c(O)c1OC
2. COc1ccc(-c2cc(=O)c3c(O)cc(O)cc3o2)cc1
3. CC(C)Oc1cc(OC(C)C)c2c(=O)cc(-c3ccccc3)oc2c1
4. COc1c(O)cc2oc(-c3ccc(O)cc3)cc(=O)c2c1O

Result string:
[45.9, 48, 24.2, 23.3]

* * *

Record form. Attribute: inhibition. Fill in for each entry.
Target: Avian myoblastosis virus polyprotein II (Avian myeloblastosis virus)
Sequence (whole entry): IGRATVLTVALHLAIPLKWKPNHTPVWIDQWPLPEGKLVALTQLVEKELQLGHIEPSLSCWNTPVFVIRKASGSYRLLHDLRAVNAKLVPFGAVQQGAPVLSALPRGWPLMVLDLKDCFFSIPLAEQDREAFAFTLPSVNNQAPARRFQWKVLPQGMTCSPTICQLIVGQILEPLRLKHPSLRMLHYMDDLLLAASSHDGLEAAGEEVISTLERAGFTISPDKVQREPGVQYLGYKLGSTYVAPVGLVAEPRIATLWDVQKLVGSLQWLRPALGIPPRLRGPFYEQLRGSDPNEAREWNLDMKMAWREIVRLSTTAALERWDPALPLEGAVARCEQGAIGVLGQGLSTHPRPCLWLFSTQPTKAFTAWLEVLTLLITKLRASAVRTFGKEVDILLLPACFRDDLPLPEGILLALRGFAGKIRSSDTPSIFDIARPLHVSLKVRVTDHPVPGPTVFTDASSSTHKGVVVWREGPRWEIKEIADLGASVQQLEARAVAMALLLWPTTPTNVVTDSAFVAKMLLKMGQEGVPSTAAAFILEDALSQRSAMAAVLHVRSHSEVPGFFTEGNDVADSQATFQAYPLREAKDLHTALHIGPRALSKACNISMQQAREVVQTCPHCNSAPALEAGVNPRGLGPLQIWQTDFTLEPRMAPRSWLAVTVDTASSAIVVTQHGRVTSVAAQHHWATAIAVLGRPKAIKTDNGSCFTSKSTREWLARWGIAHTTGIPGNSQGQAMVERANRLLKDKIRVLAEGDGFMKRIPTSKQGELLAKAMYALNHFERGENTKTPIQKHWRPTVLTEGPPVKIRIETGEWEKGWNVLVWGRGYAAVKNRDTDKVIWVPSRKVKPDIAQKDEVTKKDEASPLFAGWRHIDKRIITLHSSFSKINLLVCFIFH
Assay: Inhibition of Avian myeloblastosis virus reverse transcriptase
Parameters: concentration or dose not given beside the values
Conditions: concentration not given here
Answers are plain numbers, in %.

Please review the entries below; each comes with its answer.
CC(C)Oc1ccc(-c2cc(=O)c3c(O)c(O)c(OC(C)C)cc3o2)cc1 :: 18
O=c1c(O)c(-c2ccc(O)cc2)oc2cc(O)cc(O)c12 :: 72.6

// batch mode: one inhibition value per listed entry
1. O=c1c(O)c(-c2ccccc2)oc2cc(O)cc(O)c12
2. O=c1cc(-c2ccccc2)oc2cc(OCc3ccccc3)cc(O)c12
3. O=c1c(O)c(-c2ccc(O)c(O)c2)oc2cc(O)cc(O)c12
4. CC(C)Oc1ccc(-c2cc(=O)c3c(O)c(O)c(OC(C)C)c(O)c3o2)cc1
5. COc1cccc(OC)c1-c1cc(=O)c2c(O)c(OC)c(OC)c(OC)c2o1

Result string:
42.1
34.9
41.4
46.2
5.4

* * *

Biological target: UniProt:Q86831
Sequence (whole entry): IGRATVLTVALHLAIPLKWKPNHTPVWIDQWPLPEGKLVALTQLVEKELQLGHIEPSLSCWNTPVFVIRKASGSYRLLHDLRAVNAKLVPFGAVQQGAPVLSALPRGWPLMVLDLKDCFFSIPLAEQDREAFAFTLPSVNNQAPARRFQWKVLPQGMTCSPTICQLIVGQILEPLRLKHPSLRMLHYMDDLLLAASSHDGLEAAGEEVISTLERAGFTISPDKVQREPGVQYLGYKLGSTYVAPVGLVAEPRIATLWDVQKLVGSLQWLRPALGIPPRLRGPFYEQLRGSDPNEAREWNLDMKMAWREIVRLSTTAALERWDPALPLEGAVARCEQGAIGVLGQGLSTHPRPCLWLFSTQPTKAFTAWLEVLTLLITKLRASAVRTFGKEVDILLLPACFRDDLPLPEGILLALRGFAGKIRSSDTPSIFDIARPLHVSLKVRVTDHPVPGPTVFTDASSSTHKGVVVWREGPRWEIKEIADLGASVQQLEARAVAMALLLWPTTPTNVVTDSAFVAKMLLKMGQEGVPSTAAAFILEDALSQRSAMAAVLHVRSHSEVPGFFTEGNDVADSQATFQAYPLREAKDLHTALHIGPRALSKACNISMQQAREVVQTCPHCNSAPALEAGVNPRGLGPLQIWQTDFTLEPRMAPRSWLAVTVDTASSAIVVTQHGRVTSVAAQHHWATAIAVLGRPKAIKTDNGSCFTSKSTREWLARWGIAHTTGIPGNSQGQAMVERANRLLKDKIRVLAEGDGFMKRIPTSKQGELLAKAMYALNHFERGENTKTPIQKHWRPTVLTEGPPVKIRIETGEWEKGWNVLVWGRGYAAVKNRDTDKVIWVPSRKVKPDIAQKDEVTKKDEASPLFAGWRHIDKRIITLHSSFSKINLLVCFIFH
Test: Inhibition of Avian myeloblastosis virus reverse transcriptase
Set-up: concentration or dose not given beside the values
Conditions: concentration not given here
Record form. Attribute: inhibition. Fill in for each entry.
Answers are plain numbers, in %.

Please review the entries below; each comes with its answer.
O=c1cc(-c2ccc(O)c(O)c2)oc2c(O)c(O)cc(O)c12 :: 31.3
COc1cc(O)c2c(=O)cc(-c3ccccc3)oc2c1OC :: 9.8
O=c1cc(-c2ccccc2)oc2c(O)c(O)cc(O)c12 :: 36.9

// batch mode: one inhibition value per listed entry
1. COc1c(O)cc(O)c2c(=O)cc(-c3ccccc3O)oc12
2. O=c1c(O)c(-c2cc(O)c(O)c(O)c2)oc2cc(O)ccc12
3. O=c1cc(-c2ccccc2)oc2cc(O)c(O)c(O)c12

Result string:
1: 8.5; 2: 87.5; 3: 95

* * *

target: Avian myoblastosis virus polyprotein II (Avian myeloblastosis virus) (UniProt Q86831); experiment: Inhibition of Avian myeloblastosis virus reverse transcriptase; design: concentration or dose not given beside the values; details: concentration not given here
Record form. Attribute: inhibition. Fill in for each entry.
One number for each entry, in %.

Please review the entries below; each comes with its answer.
COc1ccc(-c2cc(=O)c3c(OC)cc(OC)cc3o2)cc1 :: 45.6
COc1c(OC(C)C)cc(O)c2c(=O)cc(-c3ccc(O)cc3)oc12 :: 15.4
O=c1c(O)c(-c2ccc(O)cc2)oc2cc(O)c(O)c(O)c12 :: 97.2

// batch mode: one inhibition value per listed entry
1. COc1cc2oc(-c3ccccc3)cc(=O)c2c(OC)c1OC
2. CC(=O)Oc1cc2oc(-c3ccccc3)cc(=O)c2c(OC(C)=O)c1OC(C)=O
3. COc1ccc(-c2cc(=O)c3ccc(O)cc3o2)cc1
4. COc1c(O)cc2oc(-c3ccccc3)cc(=O)c2c1OC
5. COc1cc(O)c2c(=O)c(OC)c(-c3ccc(OC)c(OC)c3)oc2c1
6. O=c1c(O)c(-c2ccc(O)c(O)c2)oc2c(O)c(O)cc(O)c12
7. CC(C)Oc1ccc(-c2cc(=O)c3c(O)cc(O)cc3o2)cc1
8. COc1ccc(-c2oc3cc(O)cc(O)c3c(=O)c2O)cc1

Result string:
29.8
71.4
13.6
32.7
9.2
85.1
55.4
64.6

* * *

biological target: UniProt Q86831; assay: Inhibition of Avian myeloblastosis virus reverse transcriptase; parameters: concentration or dose not given beside the values; conditions: concentration not given here
VALUE TYPE: inhibition (%)
Numbers only, in %.

O=c1cc(-c2ccc(O)c(O)c2)oc2cc(O)c(O)c(O)c12 :: 91.7
COc1ccc(-c2cc(=O)c3c(O)c(O)c(OC)c(O)c3o2)cc1 :: 39.1

Now let's try a different one.
Query string: Name the recorded inhibition of the item COc1cc2oc(-c3ccc(O)c(O)c3)cc(=O)c2c(O)c1O in your answer.
Result string: 91.4

* * *

Record form. Attribute: inhibition. Fill in for each entry.
molecular target: Avian myoblastosis virus polyprotein II (Avian myeloblastosis virus); assay: Inhibition of Avian myeloblastosis virus reverse transcriptase; parameters: concentration or dose not given beside the values; conditions: concentration not given here
Numbers only, in %.

// batch mode: one inhibition value per listed entry
1. O=c1cc(-c2ccc(O)cc2)oc2cc(O)c(O)c(O)c12
2. O=c1cc(-c2ccccc2)oc2c(O)c(OCc3ccccc3)cc(O)c12
3. O=c1cc(-c2ccccc2O)oc2c(O)c(O)cc(O)c12
4. O=c1c(O)c(-c2cc(O)c(O)c(O)c2)oc2cc(O)cc(O)c12

Result string:
[99.4, 19, 67.7, 82.5]
